Cited source for all entries: ChEMBL document CHEMBL4152200

# test-description: Selectivity index, ratio of CC50 for human MT4 cells to EC50 for HIV1 harboring reverse transcriptase Y181C mutant
# Format: toxicity
# condition-info: read-out: Ratio CC50/EC50
Returns rule met if the recorded selectivity ratio is greater than or equal to 400, and rule not met otherwise.

These recorded examples may help you get a feel for the data.
{"line-notation": "CC(=O)Cn1cc(CNC(=O)c2cnc(Nc3ccc(C#N)cc3)cc2Oc2c(C)cc(C)cc2C)nn1", "assigned-label": "rule not met"}
{"line-notation": "Cc1cc(C)c(Oc2cc(Nc3ccc(C#N)cc3)ncc2C(=O)NCc2cn(CCCO)nn2)c(C)c1", "assigned-label": "rule not met"}
{"line-notation": "Cc1cc(C)c(Oc2cc(Nc3ccc(C#N)cc3)ncc2C(=O)NCc2cn(CC(=O)N3CCOCC3)nn2)c(C)c1", "assigned-label": "rule met"}

Decide: is the reported value of selectivity ratio for Cc1cc(C)c(Oc2cc(Nc3ccc(C#N)cc3)ncc2C(=O)NCc2cn(CC(=O)N3CCCC3)nn2)c(C)c1 equal to or greater than 400?
rule met

Given Cc1cc(C)c(Oc2cc(Nc3ccc(C#N)cc3)ncc2C(=O)NCc2cn(CC(N)=O)nn2)c(C)c1 , state whether its selectivity ratio is at least 400.
rule not met

Hi, just wondering whether Cc1cc(C)c(Oc2cc(Nc3ccc(C#N)cc3)ncc2C(=O)NCc2cn(CCC#N)nn2)c(C)c1 shows selectivity ratio of 400 or higher.
rule met

====

# Tested on: MT4
# test-description: Cytotoxicity against human MT4 cells assessed as decrease in cell viability after 5 days by MTT assay
# Type: cell-based
# condition-info: mt4, 120 h
observed-property: CC50

Look over these answered cases.
{"line-notation": "Cc1cc(C)c(Oc2cc(Nc3ccc(C#N)cc3)ncc2C(=O)NCc2cn(Cc3ccccc3C)nn2)c(C)c1", "CC50": "≥ 164 µM"}
{"line-notation": "Cc1cc(C)c(Oc2cc(Nc3ccc(C#N)cc3)ncc2C(=O)NCc2cn(Cc3ccc(F)cc3)nn2)c(C)c1", "CC50": "≥ 153 µM"}

Then there is this compound:
CC50 in this record for Cc1cc(C)c(Oc2cc(Nc3ccc(C#N)cc3)ncc2C(=O)NCc2cn(Cc3ccc(Cl)cc3)nn2)c(C)c1 : ≥ 120 µM

====

# Test system: MT4
# test-description: Cytotoxicity against human MT4 cells assessed as decrease in cell viability after 5 days by MTT assay
# Assay type: cell-based
# condition-info: mt4, 120 h
observed-property: CC50

Below are worked cases with known answers.
{"line-notation": "Cc1cc(C)c(Oc2cc(Nc3ccc(C#N)cc3)ncc2C(=O)NCc2cn(Cc3ccccc3C#N)nn2)c(C)c1", "CC50": "> 220 µM"}
{"line-notation": "Cc1cn([C@H]2C[C@H](N=[N+]=[N-])[C@@H](CO)O2)c(=O)[nH]c1=O", "CC50": "> 7.48 µM"}
{"line-notation": "Cc1cc(C)c(Oc2cc(Nc3ccc(C#N)cc3)ncc2C(=O)NCc2cn(Cc3ccccc3Cl)nn2)c(C)c1", "CC50": "≥ 188 µM"}
{"line-notation": "Cc1cc(C)c(Oc2cc(Nc3ccc(C#N)cc3)ncc2C(=O)NCc2cn(Cc3cccc(C#N)c3)nn2)c(C)c1", "CC50": "≥ 130 µM"}

For Cc1cc(C)c(Oc2cc(Nc3ccc(C#N)cc3)ncc2C(=O)NCc2cn(Cc3ccccc3[N+](=O)[O-])nn2)c(C)c1 the compound record lists CC50 as > 212 µM

The recorded CC50 for entry Cc1cc(C)c(Oc2cc(Nc3ccc(C#N)cc3)ncc2C(=O)NCc2cn(Cc3cccc(F)c3)nn2)c(C)c1 equals ≥ 205 µM

// sample Cc1cc(C)c(Oc2cc(Nc3ccc(C#N)cc3)ncc2C(=O)NCc2cn(Cc3ccc([N+](=O)[O-])cc3)nn2)c(C)c1 , its CC50 was ≥ 140 µM

Recorded CC50 (compound Cc1cc(C)c(Oc2cc(Nc3ccc(C#N)cc3)ncc2C(=O)NCc2cn(Cc3cccc([N+](=O)[O-])c3)nn2)c(C)c1 ): ≥ 156 µM

Per the records, this compound ( Cc1cc(C)c(Oc2cc(Nc3ccc(C#N)cc3)ncc2C(=O)NCc2cn(Cc3ccccc3F)nn2)c(C)c1 ) has CC50 equal to > 222 µM
